Target: T1, biotinylated hBLyS-ECD (human, UniProt Q9Y275 134-285, biotinylated with Biotin-X-X-NHS (molar ratio 7:1); sites not stated)
T1 construct: also called biotinylated immunogen; biotinylated hBLvS-ECD
T1 sequence (Q9Y275 134-285): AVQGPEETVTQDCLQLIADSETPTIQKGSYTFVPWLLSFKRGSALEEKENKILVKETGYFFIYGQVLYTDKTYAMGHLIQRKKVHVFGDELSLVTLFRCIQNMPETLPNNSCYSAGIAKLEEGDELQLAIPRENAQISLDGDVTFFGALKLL
Experiment: ELISA on captured biotinylated hBLyS-ECD; antibody 66.7 nM
Consider the following binders; for each one, report its OD450 nm.
Hi! Could you send only the number? It should be in OD450 nm, unit omitted.

Return OD450 nm for the following binder: c8E7D9C7F5 (antibody, V domains shown, also called chimeric antibody c8E7D9C7F5) VH: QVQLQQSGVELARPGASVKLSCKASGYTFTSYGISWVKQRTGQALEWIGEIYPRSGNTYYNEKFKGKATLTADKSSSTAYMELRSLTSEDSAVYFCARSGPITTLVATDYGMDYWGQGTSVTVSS VL: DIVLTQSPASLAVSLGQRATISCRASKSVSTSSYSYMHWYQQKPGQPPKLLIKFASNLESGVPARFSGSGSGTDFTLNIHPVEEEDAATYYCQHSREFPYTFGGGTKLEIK 2.32

# return recorded OD450 nm for entry c97A3C2H4 (antibody, V domains shown, also called chimeric antibody c97A3C2H4) VH: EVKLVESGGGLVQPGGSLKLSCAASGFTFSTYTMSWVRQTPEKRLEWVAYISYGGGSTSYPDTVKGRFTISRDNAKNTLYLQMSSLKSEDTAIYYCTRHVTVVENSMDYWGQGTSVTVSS VL: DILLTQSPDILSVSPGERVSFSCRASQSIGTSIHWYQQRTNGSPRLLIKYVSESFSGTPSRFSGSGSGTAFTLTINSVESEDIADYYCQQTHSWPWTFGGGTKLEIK 2.41

For h97A3C2H4-9 (antibody, V domains shown, Humanized antibody; VH3-7/JH6 CDR-grafted with A93T, G44R; also called humanized BLyS antibody h97A3C2H4 variant 9 (VH.1b / Vk.1d)) VH: EVQLVESGGGLVQPGGSLRLSCAASGFTFSTYTMSWVRQAPGKRLEWVAYISYGGGSTSYPDTVKGRFTISRDNAKNSLYLQMNSLRAEDTAVYYCTRHVTVVENSMDYWGQGTTVTVSS VL: DILLTQSPDFQSVTPKEKVTITCRASQSIGTSIHWYQQKTDQSPKLLIKYVSESFSGTPSRFSGSGSGTDFTLTINSLEAEDAATYYCQQTHSWPWTFGGGTKVEIK , write its OD450 nm. 2.37

Assign OD450 nm to the following record: h8E7D9C7F5-1 (antibody, V domains shown, Humanized antibody; also called humanized BLyS antibody h8E7D9C7F5 variant 1 (VH.1 / Vk.1)) VH: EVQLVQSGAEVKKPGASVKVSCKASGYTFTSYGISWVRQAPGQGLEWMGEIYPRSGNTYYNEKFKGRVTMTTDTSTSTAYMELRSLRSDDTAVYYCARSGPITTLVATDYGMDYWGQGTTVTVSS VL: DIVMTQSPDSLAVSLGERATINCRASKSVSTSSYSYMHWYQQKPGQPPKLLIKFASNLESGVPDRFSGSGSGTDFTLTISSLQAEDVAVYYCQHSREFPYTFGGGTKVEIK 2.3
